Ref: ChEMBL document CHEMBL2380236

Assay: physchem
Field: pKa. Provide a value for each of the compounds that follow.
Enter the number alone.

Form field pKa, entry COc1cccc(-c2cccc(C3(C)N=C(N)CCO3)c2)c1 (stereo unspecified) : 9.3

Form field pKa, entry COc1cccc(-c2cccc(C3(C)CSCC(N)=N3)c2)c1 (stereo unspecified) : 10.5

Form field pKa, entry CC1(c2cccc(-c3cccnc3)c2)N=C(N)c2c(F)cccc2O1 (stereo unspecified) : 7

Form field pKa, entry COc1cccc(-c2cccc(C3(C)N=C(N)CCS3)c2)c1 (stereo unspecified) : 9.3

Form field pKa, entry COc1ccc(C2(c3cccc(-c4cccnc4)c3)N=C(N)CS2)cc1 (stereo unspecified) : 6.2

Form field pKa, entry COc1cccc(-c2cccc(C3(c4ccncc4)N=C(N)CS3)c2)c1 (stereo unspecified) : 5.4
